# measured_target: T1, human CD30 (commercial, conjugated to digoxigenin) (human, UniProt P28908 19-379, limits assumed, conjugated to digoxigenin (DIG))
# T1 sequence (looked up): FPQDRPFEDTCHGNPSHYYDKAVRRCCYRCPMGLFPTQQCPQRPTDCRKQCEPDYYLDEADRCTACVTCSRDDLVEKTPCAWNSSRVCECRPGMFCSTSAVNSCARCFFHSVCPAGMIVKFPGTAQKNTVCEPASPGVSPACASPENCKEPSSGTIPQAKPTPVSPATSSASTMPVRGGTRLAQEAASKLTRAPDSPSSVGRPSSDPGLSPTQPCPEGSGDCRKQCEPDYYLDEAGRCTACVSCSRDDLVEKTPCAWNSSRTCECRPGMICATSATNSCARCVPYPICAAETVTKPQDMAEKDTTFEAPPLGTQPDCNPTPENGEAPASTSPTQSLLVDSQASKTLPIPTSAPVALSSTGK
# method_description: AlphaScreen competition vs biotin-WT AC10
assay_metric: Fold IC50 vs WT (fold)
Give the value, in units of fold, as a plain number.

Known Fold IC50 vs WT results, listed for orientation:
binder	readout_number
AC10 H2/L2 full length antibody (antibody, V domains shown) VH: QIQLVESGGGLVKPGGSLRLSCAASGYTFTDYYITWVRQAPGQGLEWMGWIYPGSGNTKYNEKFQGRVTMTVDTSTSTAYMELSSLRSEDTAVYFCANYGNYWFAYWGQGTLVTVSS VL: DIVLTQSPSSLSASVGDRVTITCRASQSVDFDGDSYMNWYQQKPGQPPKVLIYAASNLESGIPARFSGSGSGTDFTLTISSLQPEDFATYYCQQSNEDPWTFGGGTKVEIK	0.06
AC10 H3/L0 full length antibody (antibody, V domains shown) VH: QIQLVQSGPEVKKPGASVKVSCKASGYTFTDYYITWVRQAPGQGLEWMGWIYPGSGNTKYNEKFQGRFVFSVDTSASTAYLQISSLKAEDTAVYFCANYGNYWFAYWGQGTLVTVSS VL: DIVLTQSPASLAVSLGQRATISCKASQSVDFDGDSYMNWYQQKPGQPPKVLIYAASNLESGIPARFSGSGSGTDFTLNIHPVEEEDAATYYCQQSNEDPWTFGGGTKLEIK	0.51
AC10 H2/L1 full length antibody (antibody, V domains shown) VH: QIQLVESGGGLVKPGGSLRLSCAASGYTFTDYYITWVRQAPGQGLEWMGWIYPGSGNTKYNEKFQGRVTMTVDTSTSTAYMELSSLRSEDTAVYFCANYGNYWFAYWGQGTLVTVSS VL: DIVLTQSPATLSLSPGERATLSCRASQSVDFDGDSYMNWYQQKPGQPPKVLIYAASNLESGIPARFSGSGSGTDFTLTISSLQPEDFATYYCQQSNEDPWTFGGGTKVEIK	0.06

Next:
# query: Fold IC50 vs WT of entry AC10 H1/L3 full length antibody (antibody, V domains shown) VH: QIQLVQSGPEVKKPGASVKVSCKASGYTFTDYYITWVRQAPGQGLEWMGWIYPGSGNTKYNEKFQGRVTITVDTSASTAYMELSSLRSEDTAVYFCANYGNYWFAYWGQGTLVTVSS VL: DIVLTQSPDSLAVSLGERATINCKASQSVDFDGDSYMNWYQQKPGQPPKVLIYAASNLESGIPARFSGSGSGTDFTLTINSLEAEDAATYYCQQSNEDPWTFGGGTKVEIK
0.18

FYI, the data here is from patent US7657380.
